Give GI50 for every item shown.
System: HCT-116
protocol_summary: NCI tumour cell line growth inhibition, 48 h
The source made the active and inactive calls. No stated cut-off is given here; in the data, active = GI50 up to about 1.1 µM and inactive = higher.

These recorded examples may help you get a feel for the data.
molecule: COC(=O)c1cc(-c2c[nH]cc2C(=O)OCc2ccccc2)cn1S(=O)(=O)c1ccc(C)cc1
test_result: > 100 µM (inactive)
//
molecule: Clc1nc(-c2ccccc2)nc(Cl)c1Cl
test_result: 5.6 µM (inactive)
//
molecule: O=C(CC(C(=O)c1ccsc1)c1cccs1)c1ccccc1 (stereo unspecified)
test_result: 71.4 µM (inactive)
//
molecule: O=C1NC2(CCCCC2)C2CCCCCC12 (stereo unspecified)
test_result: > 100 µM (inactive)
//
molecule: COc1ccc2c(c1)nc1n2C(c2c(F)cccc2Cl)SC1 (stereo unspecified)
test_result: 4.14 µM (inactive)

Continue with the next molecule.
What the record says about CCCCCCCSCC1C(=O)C23C(O)C1CCC2C12COC3(O)C(O)C1C(C)(C)CCC2O (stereo unspecified) : GI50 is 5.5 µM (inactive)

Provenance of the data: ChEMBL document CHEMBL1201862
